- tested.system: serotonin (5-HT) reuptake (Rattus norvegicus, UniProt P31652)
- Construct: synaptosomes are freshly isolated from areas of the rat brain; from tissue; host or cells: rat brain synaptosomes (P2 fraction)
- Sequence (P31652 whole entry): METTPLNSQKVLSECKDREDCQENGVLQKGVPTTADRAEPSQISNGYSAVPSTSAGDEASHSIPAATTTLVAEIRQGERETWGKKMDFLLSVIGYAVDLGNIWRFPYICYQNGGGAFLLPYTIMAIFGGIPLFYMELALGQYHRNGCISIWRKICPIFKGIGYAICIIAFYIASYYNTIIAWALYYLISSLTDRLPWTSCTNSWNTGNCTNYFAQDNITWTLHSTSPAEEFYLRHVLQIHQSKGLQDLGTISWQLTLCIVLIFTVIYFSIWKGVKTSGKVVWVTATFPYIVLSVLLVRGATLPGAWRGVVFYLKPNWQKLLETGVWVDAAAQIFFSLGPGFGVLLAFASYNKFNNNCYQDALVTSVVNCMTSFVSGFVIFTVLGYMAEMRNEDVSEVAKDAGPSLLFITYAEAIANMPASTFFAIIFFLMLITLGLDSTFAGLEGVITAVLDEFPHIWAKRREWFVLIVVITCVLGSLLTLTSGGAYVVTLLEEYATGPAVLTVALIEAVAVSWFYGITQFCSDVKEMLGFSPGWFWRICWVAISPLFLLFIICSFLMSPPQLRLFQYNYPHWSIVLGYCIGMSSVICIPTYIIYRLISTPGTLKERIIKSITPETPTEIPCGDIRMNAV
- experimental.protocol: Inhibition of serotonin (5HT) reuptake in synaptosomes from rat brain
- Format: biochemical
- test.parameters: test concentration of 10 μM
test.readout: 5-HT (inhibition of reuptake of serotonin, % inhibition) (%)
Your answer is read as %, so omit the unit and give the number.

| compound | tested.system | val |
| --- | --- | --- |
| CN(C)C(c1ccc(F)cc1)C1CCC(CCNC(=O)COCCN(C)S(=O)(=O)c2ccc(OC(F)(F)F)cc2)CC1 (stereo not shown) | serotonin (5-HT) reuptake (Rattus norvegicus, UniProt P31652) | 90 |
| COc1cc(C)c(S(=O)(=O)N(CCOCC(=O)NCCC2CCC(C(c3ccc(Cl)cc3)N(C)C)CC2)Cc2ccccc2)c(C)c1 (stereo not shown) | serotonin (5-HT) reuptake (Rattus norvegicus, UniProt P31652) | 52 |
| CC(Oc1ccccc1)C(=O)NCC1CCC(C(c2ccc(F)cc2)N(C)C)CC1 (stereo not shown) | serotonin (5-HT) reuptake (Rattus norvegicus, UniProt P31652) | 63 |
| COc1ccc(S(=O)(=O)N2CCCCC2CCOCC(=O)NCC2CCC(C(c3ccc(F)cc3)N(C)C)CC2)cc1 (stereo not shown) | serotonin (5-HT) reuptake (Rattus norvegicus, UniProt P31652) | 92 |
| COc1cc(C)c(S(=O)(=O)N2CCC(OCC(=O)NCC3CCC(C(CCc4ccccc4)N(C)C)CC3)CC2)c(C)c1C (stereo not shown) | serotonin (5-HT) reuptake (Rattus norvegicus, UniProt P31652) | 91 |

Input: Any idea what its 5-HT (inhibition of reuptake of serotonin, % inhibition) is? The compound is COc1cc(C)c(S(=O)(=O)N2CCC(OCC(=O)NC3CCC(C(c4ccc(F)cc4)N(C)C)CC3)CC2)c(C)c1C (stereo not shown)
Output: 95

Input: Any idea what its 5-HT (inhibition of reuptake of serotonin, % inhibition) is? The compound is CN(C)C(c1cccc(F)c1)C1CCC(CNC(=O)COC2CCN(S(=O)(=O)c3ccc(Cl)cc3Cl)C2)CC1 (stereo not shown)
Output: 85

* * *

- tested.system: human bradykinin 1 receptor (B1R) (Homo sapiens)
- Construct: expressed in transfected cells; host or cells: CHO K1 cells
- Sequence (P46663 1-353): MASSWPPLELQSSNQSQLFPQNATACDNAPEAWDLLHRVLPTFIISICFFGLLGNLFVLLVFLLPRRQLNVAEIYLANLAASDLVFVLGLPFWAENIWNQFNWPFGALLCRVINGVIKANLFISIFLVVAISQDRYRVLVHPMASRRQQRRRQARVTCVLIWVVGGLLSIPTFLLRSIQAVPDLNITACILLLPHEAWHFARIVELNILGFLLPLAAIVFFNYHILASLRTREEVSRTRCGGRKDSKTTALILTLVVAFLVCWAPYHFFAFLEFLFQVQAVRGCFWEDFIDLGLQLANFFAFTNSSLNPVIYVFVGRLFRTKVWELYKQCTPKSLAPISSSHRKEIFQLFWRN
- experimental.protocol: Functional investigation on the human bradykinin 1 receptor (B1R), Ca2+ FLIPR assay in CHO K1 hB1R cells
- Format: cell-based
- test.parameters: CHO-K1, B1R antagonism human; test substance 10 μM; Ca2+ FLIPR, CHO K1 hB1R cells; read-out: B1R Ant. h [10 μM] % Inhibition
test.readout: inhibition at 10 µM (%)
Your answer is read as %, so omit the unit and give the number.

Consider the reported inhibition at 10 µM for these compounds:
| compound | val |
| --- | --- |
| COc1cc(C)c(S(=O)(=O)N2CCN(CCOCC(=O)NC3CCC(C(c4cccc(F)c4)N(C)C)CC3)CC2)c(C)c1C (centres unmarked) | 52 |
| COc1cc(C)c(S(=O)(=O)N2CCC(OCC(=O)NC3CCC(C(c4cccs4)N(C)C)CC3)CC2)c(C)c1C (centres unmarked) | 46 |
| CN(C)C(c1cccc(F)c1)C1CCC(NC(=O)COCCN(Cc2ccccc2)S(=O)(=O)c2ccccc2)CC1 (centres unmarked) | -6 |
| CN(C)C(c1cccs1)C1CCC(CCNC(=O)COCCN(C)S(=O)(=O)c2ccc(F)cc2)CC1 (centres unmarked) | 7 |
| CN(C)C(c1ccccc1)C1CCC(CNC(=O)COC2CCCN(S(=O)(=O)c3c(Cl)cc(Cl)cc3Cl)C2)CC1 (centres unmarked) | 88 |

Input: Any idea what its inhibition at 10 µM is? The compound is CN(C)C(c1cccs1)C1CCC(NC(=O)COCCN(Cc2ccccc2)S(=O)(=O)c2ccccc2)CC1 (centres unmarked)
Output: 1

Input: Any idea what its inhibition at 10 µM is? The compound is COc1ccc(-c2noc(C(=O)NCC(=O)NC3CCC(C(CCc4ccccc4)N(C)C)CC3)n2)cc1OC (centres unmarked)
Output: 1

Input: Any idea what its inhibition at 10 µM is? The compound is CN1CCN(C(c2ccccc2)C2CCC(NC(=O)COC3CCN(S(=O)(=O)c4c(Cl)cc(Cl)cc4Cl)C3)CC2)CC1 (centres unmarked)
Output: 80
